system.under.test: T1, Human skeletal myosin S2 peptide (MYH2), 19 residues (human, also: in FRET: FITC on N-terminus of one monomer, terbium-DTPA-cytosine chelate on C-terminal Lys of the other)
T1 construct: also called skeletal muscle myosin S2^pep
T1 peptide: EVTERAEDEEEINAELTAK
assay.details: FRET donor lifetime of 0.1 µM labelled S2 peptide dimer titrated with stabilizer
Where no end group is shown, it is not given here.
test.readout: pKd
In simple prose, pKd is minus the logarithm base ten of a concentration in moles per litre.

Ask: What pKd value was documented for this binder, KKKKKKKKFKAKKKKKK (also called stabilizing peptide; unlabeled stabilizer) [Stabilizer peptide] ?
Reply: 7.71
